Molecular target: T1, hZwint-1 (human, UniProt O95229 1-277)
T1 sequence (looked up): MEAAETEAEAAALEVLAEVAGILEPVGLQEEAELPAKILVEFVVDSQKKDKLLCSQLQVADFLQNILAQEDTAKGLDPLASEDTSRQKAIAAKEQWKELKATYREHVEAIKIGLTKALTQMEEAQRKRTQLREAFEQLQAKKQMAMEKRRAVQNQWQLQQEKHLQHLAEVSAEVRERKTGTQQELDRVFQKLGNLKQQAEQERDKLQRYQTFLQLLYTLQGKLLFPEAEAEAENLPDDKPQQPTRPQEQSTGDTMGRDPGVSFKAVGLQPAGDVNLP
Assay: two-hybrid
Each entry below lists one item and its recorded β-galactosidase assay value.
Number only, please.

>  <Binder>
hZW10 C8 (aa 1–224) (domain or fragment, human, UniProt O43264 1-224, looked up) MASFVTEVLAHSGRLEKEDLGTRISRLTRRVEEIKGEVCNMISKKYSEFLPSMQSAQGLITQVDKLSEDIDLLKSRIESEVRRDLHVSTGEFTDLKQQLERDSVVLSLLKQLQEFSTAIEEYNCALTEKKYVTGAQRLEEAQKCLKLLKSRKCFDLKILKSLSMELTIQKQNILYHLGEEWQKLIVWKFPPSKDTSSLESYLQTELHLYTEQSHKEEKTPMPPI

>  <β-galactosidase assay>
233

$$$$
>  <Binder>
hZW10 C7 (aa 1–318) (domain or fragment, human, UniProt O43264 1-318, looked up) MASFVTEVLAHSGRLEKEDLGTRISRLTRRVEEIKGEVCNMISKKYSEFLPSMQSAQGLITQVDKLSEDIDLLKSRIESEVRRDLHVSTGEFTDLKQQLERDSVVLSLLKQLQEFSTAIEEYNCALTEKKYVTGAQRLEEAQKCLKLLKSRKCFDLKILKSLSMELTIQKQNILYHLGEEWQKLIVWKFPPSKDTSSLESYLQTELHLYTEQSHKEEKTPMPPISSVLLAFSVLGELHSKLKSFGQMLLKYILRPLASCPSLHAVIESQPNIVIIRFESIMTNLEYPSPSEVFTKIRLVLEVLQKQLLDLPLDTDLEN

>  <β-galactosidase assay>
132

$$$$
>  <Binder>
hZW10 C9 (aa 1–139) (domain or fragment, human, UniProt O43264 1-139, looked up) MASFVTEVLAHSGRLEKEDLGTRISRLTRRVEEIKGEVCNMISKKYSEFLPSMQSAQGLITQVDKLSEDIDLLKSRIESEVRRDLHVSTGEFTDLKQQLERDSVVLSLLKQLQEFSTAIEEYNCALTEKKYVTGAQRLE

>  <β-galactosidase assay>
445

$$$$

For reference, reported β-galactosidase assay for hZW10 C6 (aa 1–356) (domain or fragment, human, UniProt O43264 1-356, looked up) MASFVTEVLAHSGRLEKEDLGTRISRLTRRVEEIKGEVCNMISKKYSEFLPSMQSAQGLITQVDKLSEDIDLLKSRIESEVRRDLHVSTGEFTDLKQQLERDSVVLSLLKQLQEFSTAIEEYNCALTEKKYVTGAQRLEEAQKCLKLLKSRKCFDLKILKSLSMELTIQKQNILYHLGEEWQKLIVWKFPPSKDTSSLESYLQTELHLYTEQSHKEEKTPMPPISSVLLAFSVLGELHSKLKSFGQMLLKYILRPLASCPSLHAVIESQPNIVIIRFESIMTNLEYPSPSEVFTKIRLVLEVLQKQLLDLPLDTDLENEKTSTVPLAEMLGDMIWEDLSECLIKNCLVYSIPTNSS stands at 275
